Data provenance: patent US20220193132A1

Target: EGFRvIII, full length, overexpressed on glioblastoma cells (human, UniProt P00533 298-623); also: test concentration or dose not given here
Test: cell-based or functional assay
What % survival (DM1 secondary-conjugate ADC surrogate assay, vs mouse IgG) was measured for each of the following?
One number for each entry, in %.

Go through the items and report each one's % survival (DM1 secondary-conjugate ADC surrogate assay, vs mouse IgG).
1. F266-11C8 (antibody, V domains shown, Mouse hybridoma mAb; also called 11H5 (11C8)) VH: QIQLVQSGPELKKPGETVKISCKASGYTFTTAGMQWVQKMPGKGFKWIGWINTHSGDPKYAEDFKGRFAFSLETYASTAYLQISNLKNEDTASYFCARTHIYDGYNYAMDYWGQGTSVTVSS VL: DVVMTQTPLSLPVSLGDQASISCRSSQSLVYSNGNTYLHWYLQKPGQSPKLLIYKVSNRFSGVPDRFSGSGSGTDFTLKISRVEAEDLGVYFCSQSTHVPFTFGSGTKLEIK
2. F263-5D8 (antibody, V domains shown, Mouse hybridoma mAb) VH: EVQLQQSGPDLVKPGSSVKISCKASGYTFTDYNIDWVKQSHGKSLEWIGTINPNYGGTSYNQKFKGKATLTVDKSSSTAYMELRSLTSEDSAVYYCARGYDYDLWFAYWGQGTLVTVSA VL: EIVLTQSPVFMAASPGEKVTITCSVSSSISSSNLHWYQQKSETSPKPWIYGTSNLASGVPVRFSGSGSGTSYSLTISSMEAEDAATYYCQQWSSYPLTFGAGTKLELK
3. F266-11H3 (antibody, V domains shown, Mouse hybridoma mAb) VH: QIQLVQSGPELKKPGETVKISCKASGYTFTTAGMQWVQKMPGKGFKWIGWINTHSGDPKYAEDFKGRFAFSLETYASTAYLQISNLKNEDTATYFCARTHIYDGYNYAMDYWGQGTSVTVSS VL: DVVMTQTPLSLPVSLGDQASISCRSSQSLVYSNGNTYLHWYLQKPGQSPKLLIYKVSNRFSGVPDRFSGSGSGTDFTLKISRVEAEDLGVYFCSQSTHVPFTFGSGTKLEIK
4. F265-9C9 (antibody, V domains shown, Mouse hybridoma mAb) VH: QVQLQQPGAELVKPGASVKLSCKASGYTFTSYWMHWVKQRPGQDLEWIGEIDPSDSYTNYNQKFKGKATLTVDKSSSTAYIQLSSLTSEDSALYYCARFDFAYWGQGTLVTVSA VL: EIVLTQSPTLMAASPGEKVTITCSVSSSISSSNLHWYQQKSETSPKPWIYDTSNLASGVPIRFSGSGSGTSYSLTISSVEAEDAATYYCQQWSSYPLTFGSGTKLEIK

[55, 69, 62, 82]
